MIC: recorded values
Tested on: Escherichia coli
ASSAY_COMMENT: Escherichia coli in vitro MIC (Minimum Inhibitory Concentration)
Assay type: cell-based
SETTINGS: read-out: MIC
Please state the figure in µg/mL; there is no need to write the unit.

The examples below pair each entry with its known result.
COMPOUND | MIC / µg/mL
CCn1cc(C(=O)O)c(=O)cc1-c1ccc(NC)c(C)c1 | 0.6
CCn1cc(C(=O)O)c(=O)cc1-c1ccc2c(c1)OCO2 | 2.5
CCn1cc(C(=O)O)c(=O)cc1-c1ccc(OC)cc1 | 2.5
CCn1cc(C(=O)O)c(=O)cc1-c1ccc(N2CCCC2)cc1 | 1.2

Enquiry: Param item = CCn1cc(C(=O)O)c(=O)cc1-c1ccc(SC)cc1 ; retrieve measured MIC.
Return: 2.5

Enquiry: Bench note: what MIC did CCn1cc(C(=O)O)c(=O)cc1-c1ccc(N(C)C)cc1 show?
Return: 0.6

Enquiry: Return reported MIC; argument: O=C1CN(/N=C/c2ccc([N+](=O)[O-])o2)C(=O)N1 [Nitrofurantoin, reference compound]
Return: 5
